Molecular target: human ether-à-go-go-related gene (hERG) potassium channel (human, UniProt Q12809);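 note: peak tail current of the secondary pulse compared with the same well before compound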
Sequence (Q12809 whole entry, looked up): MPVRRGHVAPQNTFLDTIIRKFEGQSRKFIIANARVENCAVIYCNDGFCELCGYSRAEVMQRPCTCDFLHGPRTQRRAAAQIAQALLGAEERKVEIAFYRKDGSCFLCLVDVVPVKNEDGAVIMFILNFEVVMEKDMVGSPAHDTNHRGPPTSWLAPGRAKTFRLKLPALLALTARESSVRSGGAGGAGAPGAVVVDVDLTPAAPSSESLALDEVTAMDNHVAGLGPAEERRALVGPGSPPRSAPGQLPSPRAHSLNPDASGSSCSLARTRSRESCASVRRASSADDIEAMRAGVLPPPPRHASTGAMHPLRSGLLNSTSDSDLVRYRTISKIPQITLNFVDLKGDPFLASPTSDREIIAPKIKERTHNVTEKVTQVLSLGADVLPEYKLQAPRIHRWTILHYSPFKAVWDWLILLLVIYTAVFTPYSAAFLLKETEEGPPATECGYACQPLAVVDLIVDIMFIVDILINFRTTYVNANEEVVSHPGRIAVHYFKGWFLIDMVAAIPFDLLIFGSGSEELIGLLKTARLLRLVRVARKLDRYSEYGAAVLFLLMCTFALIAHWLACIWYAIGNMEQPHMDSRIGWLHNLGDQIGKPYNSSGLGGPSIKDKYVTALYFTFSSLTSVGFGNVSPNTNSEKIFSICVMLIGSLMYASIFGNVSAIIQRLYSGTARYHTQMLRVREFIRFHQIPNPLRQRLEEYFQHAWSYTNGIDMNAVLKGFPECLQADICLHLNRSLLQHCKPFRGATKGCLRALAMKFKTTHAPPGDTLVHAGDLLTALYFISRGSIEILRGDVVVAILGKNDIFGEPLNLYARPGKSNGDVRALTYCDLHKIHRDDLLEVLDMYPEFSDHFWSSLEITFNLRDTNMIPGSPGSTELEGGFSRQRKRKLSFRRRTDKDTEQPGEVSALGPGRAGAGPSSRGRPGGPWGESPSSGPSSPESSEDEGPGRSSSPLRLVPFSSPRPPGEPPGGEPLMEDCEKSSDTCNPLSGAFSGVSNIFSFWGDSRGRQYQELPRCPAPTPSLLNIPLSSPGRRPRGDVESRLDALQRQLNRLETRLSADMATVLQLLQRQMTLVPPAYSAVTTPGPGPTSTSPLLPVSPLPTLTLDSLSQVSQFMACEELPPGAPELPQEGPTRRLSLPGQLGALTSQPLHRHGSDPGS
Test: primary screen, population patch clamp on CHO cells stably expressing hERG; higher = less effect of the substance
The whole screen tested about 310,000 compounds, of which about 14,000 (4.5%) showed an effect of 50% or more. The effect is printed as a negative number. Only a selection was taken, and strong results are over-represented in it overall.
endpoint.name: hERG current change (%, negative = inhibition) at 10uM (%)

{"columns": ["input.smiles", "units.of.measure", "value.observed"],
 "data": [
  ["O=C(C[n+]1cc(-c2ccccc2)n2c1CCC2)Nc1nc(-c2ccc(F)cc2)cs1.[Cl-]", "%", -20.3],
  ["Cc1csc(NC(=O)CCCNC(=O)c2ccc(Cl)cc2)n1", "%", -23.6],
  ["COc1cc(/C(C)=N/N2CCN(Cc3ccc(C)cc3)CC2)ccc1O", "%", -44.3],
  ["CC(=O)Oc1ccc(/C(C)=N\\N2CCN(Cc3ccc(Cl)cc3)CC2)cc1", "%", -36.8]
]}
